measured.on: Histamine H4 receptor (Rattus norvegicus)
test.name: Antagonist activity at rat histamine H4 receptor assessed as decrease in intracellular calcium by FLIPR relative to histamine
Format: functional, cell-based
Parameters: concentration or dose not given beside the values
Catalogue of compounds with associated Activity
measured.quantity: Activity

>>> experimental_result("Nc1nc(N2CCNCC2)c2c(n1)C1(CCC2)Cc2ccccc2C1")
"135%"
>>> experimental_result("Nc1nc(N2C[C@H]3CNC[C@H]3C2)c2c(n1)C1(CCCC1)CCC2 (stereo in doubt; 33)")
"53%"
>>> experimental_result("Nc1nc(N2C[C@H]3CNC[C@H]3C2)c2c(n1)C1(CCCC1)CCC2 (stereo in doubt; 34)")
"48%"
>>> experimental_result("CN1CCC(Oc2nc(N)nc3c2CCCC32CCCC2)CC1")
"86%"
>>> experimental_result("Nc1nc(N2CCCNCC2)c2c(n1)C1(CCCC1)CCC2")
"77%"
